# Test system: lymphocytes from the spleen of a Swiss mouse
# ASSAY PROCEDURE: Immunosuppressing activity: vitality of freshly isolated spleen lymphocytes, flow-through cytometer
# Format: cell-based
# EXPERIMENTAL CONDITIONS: 2 days incubation, read-out: IC50 (percentage amount of vital cells)
MEASURED METRIC: IC50 (nM)
Reply with just the number (in nM).

Give reported IC50 value for `O=C(C=Cc1cccnc1)NCCCCC1CCN(C(=O)c2ccccc2)CC1`
3
